conditions: human gut metagenome, 24 h, 2 µM; note: call rule not given here
Experimental Readout: Bacterial Biotransformation

Record excerpt, results attached:
[[record]]
molecule = "CN1CCN(C(=O)O[C@H]2c3nccnc3C(=O)N2c2ccc(Cl)cn2)CC1"
experimental_readout = "Bacterial Biotransformation"
experimental_value = "Compound NOT metabolized"

[[record]]
molecule = "CCN(CC)CCOCCOC(=O)C1(c2ccccc2)CCCC1.O=C(O)CC(O)(CC(=O)O)C(=O)O [CARBETAPENTANE CITRATE]"
experimental_readout = "Bacterial Biotransformation"
experimental_value = "Compound metabolized"

[[record]]
molecule = "Cc1nc(-c2ccc(OCC(C)C)c(C#N)c2)sc1C(=O)O"
experimental_readout = "Bacterial Biotransformation"
experimental_value = "Compound metabolized"

[[record]]
molecule = "O=C(CCCN1CCC(O)(c2ccc(Cl)cc2)CC1)c1ccc(F)cc1"
experimental_readout = "Bacterial Biotransformation"
experimental_value = "Compound NOT metabolized"

[[record]]
molecule = "CN1CCOC(c2ccccc2)c2ccccc2C1 (centres undefined)"
experimental_readout = "Bacterial Biotransformation"
experimental_value = "Compound NOT metabolized"

[[record]]
molecule = "c1ccc([C@H]2CN3CCSC3=N2)cc1"
experimental_readout = "Bacterial Biotransformation"
experimental_value = "Compound metabolized"


Endpoint output: Bacterial Biotransformation of CNC(=C[N+](=O)[O-])NCCSCc1csc(CN(C)C)n1 . Value?
Compound NOT metabolized

What Bacterial Biotransformation value was documented for this molecule, Clc1ccc(Cn2c(CN3CCCC3)nc3ccccc32)cc1 ?
Compound NOT metabolized

# input molecule: CC(C)c1nc(CN(C)C(=O)N[C@H](C(=O)N[C@@H](Cc2ccccc2)C[C@H](O)[C@H](Cc2ccccc2)NC(=O)OCc2cncs2)C(C)C)cs1 ; wanted: its Bacterial Biotransformation
Compound metabolized

* * *

conditions: human gut metagenome, 24 h, 2 µM
Experimental Readout: Bacterial Biotransformation

Field: example entries. Status: answers known.
[[record]]
compound = "CCOC(=O)[C@H](CCc1ccccc1)N[C@@H](C)C(=O)N1[C@H](C(=O)O)C[C@@H]2CCC[C@@H]21"
experimental_readout = "Bacterial Biotransformation"
experimental_value = "Compound metabolized"

[[record]]
compound = "CNC(=C[N+](=O)[O-])NCCSCc1csc(CN(C)C)n1"
experimental_readout = "Bacterial Biotransformation"
experimental_value = "Compound NOT metabolized"

[[record]]
compound = "CC(=O)OCC(=O)[C@@]12N=C(C)O[C@@H]1C[C@H]1[C@@H]3CCC4=CC(=O)C=C[C@]4(C)[C@H]3[C@@H](O)C[C@@]12C"
experimental_readout = "Bacterial Biotransformation"
experimental_value = "Compound metabolized"

[[record]]
compound = "Cc1nc2n(c(=O)c1CCN1CCC(c3noc4cc(F)ccc34)CC1)CCCC2O (stereo not drawn)"
experimental_readout = "Bacterial Biotransformation"
experimental_value = "Compound metabolized"

[[record]]
compound = "NS(=O)(=O)c1cc2c(cc1Cl)N=C(CSCc1ccccc1)NS2(=O)=O [BENZTHIAZIDE]"
experimental_readout = "Bacterial Biotransformation"
experimental_value = "Compound NOT metabolized"

[[record]]
compound = "Cc1ccc(S(=O)(=O)NC(=O)NN2CCCCCC2)cc1 [TOLAZAMIDE]"
experimental_readout = "Bacterial Biotransformation"
experimental_value = "Compound metabolized"


Field request: Bacterial Biotransformation | item: CC(C)NCC(O)COc1ccc(CCOCC2CC2)cc1 (stereo not drawn)
Compound NOT metabolized

Please look up its Bacterial Biotransformation: CC(=O)CC(c1ccccc1)c1c(O)c2ccccc2oc1=O (stereo not drawn)
Compound metabolized

* * *

assay: The drug is tested on Z-020 corresponding to rabbit gut metagenome with ENA study accession number: PRJEB37062 and ENA sample accession number: ERS12561819 for biotransformation under anaerobic condition. The drug concentrations were measured over 9 timepoints collected between 0 and 24 hours of incubation by liquid-chromatography-coupled mass spectrometry (LC–MS); conditions: 2 µM
Experimental Readout: Bacterial Biotransformation

[[record]]
structure_string = "COc1ccc2c(c1OC)C(=O)O[C@@H]2[C@H]1c2c(cc3c(c2OC)OCO3)CCN1C"
experimental_value = "Compound metabolized"

[[record]]
structure_string = "CCCCC1=NC2(CCCC2)C(=O)N1Cc1ccc(-c2ccccc2-c2nnn[nH]2)cc1"
experimental_value = "Compound metabolized"

[[record]]
structure_string = "CCCCCOC(=O)Nc1nc(=O)n([C@@H]2O[C@H](C)[C@@H](O)[C@H]2O)cc1F"
experimental_value = "Compound metabolized"


* * *

conditions: human gut metagenome, 24 h, 2 µM
Experimental Readout: Bacterial Biotransformation

[[record]]
molecule = "CN(C)CCc1c[nH]c2ccc(Cn3cncn3)cc12.O=C(O)c1ccccc1 [RIZATRIPTAN BENZOATE]"
experimental_readout = "Bacterial Biotransformation"
experimental_value = "Compound NOT metabolized"

[[record]]
molecule = "CCN(CC)CC#CCOC(=O)C(O)(c1ccccc1)C1CCCCC1.Cl (stereo not drawn) [OXYBUTYNIN CHLORIDE]"
experimental_readout = "Bacterial Biotransformation"
experimental_value = "Compound metabolized"

[[record]]
molecule = "Cc1nc(-c2ccc(OCC(C)C)c(C#N)c2)sc1C(=O)O [FEBUXOSTAT]"
experimental_readout = "Bacterial Biotransformation"
experimental_value = "Compound metabolized"

[[record]]
molecule = "COC(=O)[C@H]1[C@H]2C[C@@H]3c4[nH]c5cc(OC)ccc5c4CCN3C[C@H]2C[C@@H](OC(=O)c2cc(OC)c(OC)c(OC)c2)[C@@H]1OC [RESERPINE]"
experimental_readout = "Bacterial Biotransformation"
experimental_value = "Compound NOT metabolized"

[[record]]
molecule = "Nc1c2c(nc3ccccc13)CCCC2 [TACRINE]"
experimental_readout = "Bacterial Biotransformation"
experimental_value = "Compound NOT metabolized"

[[record]]
molecule = "O=c1n(CCCN2CCN(c3cccc(Cl)c3)CC2)nc2ccccn12 [TRAZODONE]"
experimental_readout = "Bacterial Biotransformation"
experimental_value = "Compound NOT metabolized"


I am curious: what Bacterial Biotransformation value has been reported for OCCOCCN1CCN(C2=Nc3ccccc3Sc3ccccc32)CC1 [QUETIAPINE] ?
Compound NOT metabolized

GET /values?readout=Bacterial Biotransformation&item= NC(CO)(CO)CO.O=C(c1ccccc1)c1ccc2n1CCC2C(=O)O (stereo not drawn) [KETOROLAC TROMETHAMINE]
Compound metabolized

* * *

test: The drug is tested on Z-022 corresponding to mouse gut metagenome with ENA study accession number: PRJEB37062 and ENA sample accession number: ERS12561821 for biotransformation under anaerobic condition. The drug concentrations were measured over 9 timepoints collected between 0 and 24 hours of incubation by liquid-chromatography-coupled mass spectrometry (LC–MS); conditions: 2 µM
Experimental Readout: Bacterial Biotransformation

Some compounds with known Bacterial Biotransformation results, for comparison:
[[record]]
compound = "CCCc1nc(C(C)(C)O)c(C(=O)OCc2oc(=O)oc2C)n1Cc1ccc(-c2ccccc2-c2nnn[nH]2)cc1"
experimental_readout = "Bacterial Biotransformation"
experimental_value = "Compound metabolized"

[[record]]
compound = "CC(CN(C)C)CN1c2ccccc2CCc2ccccc21.O=C(O)/C=C\\C(=O)O (stereo not given) [TRIMIPRAMINE MALEATE]"
experimental_readout = "Bacterial Biotransformation"
experimental_value = "Compound NOT metabolized"

[[record]]
compound = "COc1cc2nc(N(C)CCCNC(=O)C3CCCO3)nc(N)c2cc1OC (stereo not given)"
experimental_readout = "Bacterial Biotransformation"
experimental_value = "Compound metabolized"

[[record]]
compound = "CC(C)(C)NC[C@H](O)COc1ccccc1C1CCCC1.CC(C)(C)NC[C@H](O)COc1ccccc1C1CCCC1.O=S(=O)(O)O [PENBUTOLOL SULFATE]"
experimental_readout = "Bacterial Biotransformation"
experimental_value = "Compound metabolized"


# get_value(readout='Bacterial Biotransformation', item= CCCCC(=O)N(Cc1ccc(-c2ccccc2-c2nnn[nH]2)cc1)[C@H](C(=O)O)C(C)C )
Compound NOT metabolized

Quick one: Bacterial Biotransformation of O=C(O)CCc1nc(-c2ccccc2)c(-c2ccccc2)o1 ?
Compound metabolized

Which Bacterial Biotransformation value belongs to Cc1ccc(/C(=C\CN2CCCC2)c2ccccn2)cc1 ?
Compound NOT metabolized

* * *

assay: The drug is tested on Z-029 corresponding to rat gut metagenome with ENA study accession number: PRJEB37062 and ENA sample accession number: ERS12561828 for biotransformation under anaerobic condition. The drug concentrations were measured over 9 timepoints collected between 0 and 24 hours of incubation by liquid-chromatography-coupled mass spectrometry (LC–MS); settings: 2 µM
Experimental Readout: Bacterial Biotransformation

[[record]]
molecule = "CN1CCOC(c2ccccc2)c2ccccc2C1 (centres undefined)"
experimental_readout = "Bacterial Biotransformation"
experimental_value = "Compound NOT metabolized"

[[record]]
molecule = "CCC(COC(=O)c1cc(OC)c(OC)c(OC)c1)(c1ccccc1)N(C)C.O=C(O)/C=C\\C(=O)O (centres undefined)"
experimental_readout = "Bacterial Biotransformation"
experimental_value = "Compound NOT metabolized"

[[record]]
molecule = "Cc1ccc(S(=O)(=O)NC(=O)NN2CC3CCCC3C2)cc1 (centres undefined) [GLICLAZIDE]"
experimental_readout = "Bacterial Biotransformation"
experimental_value = "Compound NOT metabolized"

[[record]]
molecule = "COc1ccccc1OCC(O)CN1CCN(CC(=O)Nc2c(C)cccc2C)CC1 (centres undefined)"
experimental_readout = "Bacterial Biotransformation"
experimental_value = "Compound NOT metabolized"

[[record]]
molecule = "CCCCc1nc(Cl)c(CO)n1Cc1ccc(-c2ccccc2-c2nn[nH]n2)cc1"
experimental_readout = "Bacterial Biotransformation"
experimental_value = "Compound metabolized"


Report Bacterial Biotransformation for CC(C)(C#N)c1cc(Cn2cncn2)cc(C(C)(C)C#N)c1 please.
Compound NOT metabolized

Consider the molecule CC(C)(C(=O)O)c1ccc(C(O)CCCN2CCC(C(O)(c3ccccc3)c3ccccc3)CC2)cc1 (centres undefined) [FEXOFENADINE] and give its measured Bacterial Biotransformation.
Compound NOT metabolized

What does the data say about its Bacterial Biotransformation? Entry: O=C(O)COCCN1CCN(C(c2ccccc2)c2ccc(Cl)cc2)CC1 (centres undefined)
Compound NOT metabolized

Param item = Cc1cn([C@H]2C[C@H](N=[N+]=[N-])[C@@H](CO)O2)c(=O)[nH]c1=O ; retrieve measured Bacterial Biotransformation.
Compound metabolized

Hey, just so you know, these numbers are from ChEMBL document CHEMBL5724914.
